Values compiled from ChEMBL document CHEMBL4402532.

Exercise: for every item that follows, state its recorded IC50.
Biological target: Heme oxygenase 2 (Rattus norvegicus, UniProt P23711)
Test: Inhibition of Sprague-Dawley rat brain microsome HO-2 preincubated for 10 mins followed by beta-NADPH addition and measured after 15 mins by gas chromatography
Format: microsomes
Value expressed in µM; do not type the unit.

# return recorded IC50 for input Cc1ccc(S(=O)(=O)C[C@@H]2CO[C@@](CCc3ccc(Cl)cc3)(Cn3ccnc3)O2)cc1
3

Recall and state the measured IC50 for Brc1ccc(Cn2c(CC3CCCC3)nc3ccccc32)cc1 .
8.4

Output IC50 of OC(Cn1ccnc1)CC12CC3CC(CC(C3)C1)C2 (centres undefined)
6.5

Note IC50 for the compound shown: O=C(Cn1ccnc1)c1ccc(C2CCCCC2)cc1
6

Using known records, supply IC50 for c1ccc(CCCCCCn2ccnc2)cc1
20

Give the reported IC50 for this compound. COc1ccc(CC(O)CCn2ccnc2)cc1 (centres undefined)
6

State, in one line, measured IC50 of Fc1ccc(CO[C@@H](CCc2ccc(Cl)cc2)Cn2ccnc2)cc1
1

Quickly give me recorded IC50 for Cc1ccc(Cn2c(CC3CCCC3)nc3ccccc32)cc1
8.6

Look up and state reported IC50 for O=C(Cn1cncn1)c1ccc(Cc2ccccc2)cc1
7

----------
Target: Heme oxygenase 1 (Rattus norvegicus)
Sequence (P06762 whole entry): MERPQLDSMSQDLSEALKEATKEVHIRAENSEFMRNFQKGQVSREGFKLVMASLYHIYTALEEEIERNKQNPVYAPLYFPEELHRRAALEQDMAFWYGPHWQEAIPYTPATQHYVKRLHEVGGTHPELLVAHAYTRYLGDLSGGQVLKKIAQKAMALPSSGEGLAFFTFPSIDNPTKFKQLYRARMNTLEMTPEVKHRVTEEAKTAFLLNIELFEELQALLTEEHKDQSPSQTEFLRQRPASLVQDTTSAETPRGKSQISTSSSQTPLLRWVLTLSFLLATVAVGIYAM
Experiment: Inhibition of Sprague-Dawley rat spleen microsome HO-1 preincubated for 10 mins followed by beta-NADPH addition and measured after 15 mins by gas chromatography
Assay type: microsomes
Heads up, the class ranges for IC50 are lower: < 900 nM; middle: ≥ 900 nM and < 3000 nM; upper: ≥ 3000 nM

Which IC50 category applies to Cc1ccc(S(=O)(=O)C[C@@H]2CO[C@@](CCc3ccc(Cl)cc3)(Cn3ccnc3)O2)cc1 here?
upper

Just checking, what class would you give O=C(Cc1ccc(Br)cc1)Cn1ccnn1 here?
lower

Form: Item = O=C(Cn1ccnc1)c1cccc2ccccc12 ; Class = ?
middle

Into which category would you place O=C(Cn1ccnc1)c1ccc(C2CCCCC2)cc1 ?
upper

Any idea which band COc1ccc(CC(O)CCn2ccnc2)cc1 (stereo unspecified) is in?
lower

Which bin should I file c1ccc(CCCCCCn2ccnc2)cc1 under?
middle

GET /class?item= O=C(Cn1ccnc1)c1ccc(Cl)c(Cl)c1
middle

Lab log: O=C(Cn1cncn1)c1ccc(Cc2ccccc2)cc1 — assign IC50 category
middle

Which IC50 band matches O=C(Cn1ccnc1)c1ccc(Cl)c(Cl)c1Cl ?
middle

Please report the category associated with OC(Cn1ccnc1)CC12CC3CC(CC(C3)C1)C2 (stereo unspecified) , nothing else.
middle

Bin this entry: Cc1ccc(Cn2c(CC3CCCC3)nc3ccccc32)cc1
upper

Given Brc1ccc(Cn2c(CC3CCCC3)nc3ccccc32)cc1 , name the class its IC50 places it in.
upper

Which band does c1ccc(Cn2c(CC3CC4CCC3C4)nc3ccccc32)cc1 (stereo unspecified) fall in?
upper

Dear colleague, I would appreciate it if you could identify the bin for O[C@H](Cn1ccnc1)c1ccc(CCc2ccccc2)cc1 and reply at your convenience.
lower

Which IC50 category applies to c1ccc(CCCCn2ccnc2)cc1 here?
lower

----------
Target: Heme oxygenase 2 (Rattus norvegicus)
Sequence (P23711 whole entry): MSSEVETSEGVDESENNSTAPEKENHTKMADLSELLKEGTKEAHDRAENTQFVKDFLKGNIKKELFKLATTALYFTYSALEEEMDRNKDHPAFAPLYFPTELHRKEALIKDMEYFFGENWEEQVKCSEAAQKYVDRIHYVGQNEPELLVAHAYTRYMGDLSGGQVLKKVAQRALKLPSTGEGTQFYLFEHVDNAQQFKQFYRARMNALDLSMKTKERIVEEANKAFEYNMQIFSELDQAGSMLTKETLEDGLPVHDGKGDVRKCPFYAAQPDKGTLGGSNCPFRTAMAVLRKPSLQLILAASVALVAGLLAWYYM
Test: Inhibition of rat brain microsome HO-2 preincubated for 10 mins followed by beta-NADPH addition and measured after 15 mins by gas chromatography
Type: microsomes
EXPERIMENTAL READOUT: IC50 (µM)
Give the value, in units of µM, as a plain number.

Tell us which IC50 value is on record for CC(C)N1CCN(c2ccc(OCC3COC(Cn4cncn4)(c4ccc(Cl)cc4Cl)O3)cc2)CC1 (stereo unspecified) [TERCONAZOLE]
5

----------
Biological target: Heme oxygenase 2 (Rattus norvegicus) (UniProt P23711)
Assay: Activation of rat brain microsome HO-2 […] preincubated for 10 mins followed by NADPH addition and measured after 15 mins by gas chromatography relative to control
Assay type: microsomes
Design: concentration or dose not given beside the values
If the reported Activity equals or exceeds 200%, assign True. If not, assign False.

Does the reported Activity for O=C1CCCc2ccccc21 fall at or above the 200% mark?
False

Confirm if Activity reported for the compound CC(C)(C)N1COc2ccc3c4c(oc3c2C1)C(=O)c1ccccc1C4=O is 200% or above.
True

Test whether the compound O=C1C=CC(=O)c2ccccc21 records Activity of 200% or higher.
True

Evaluate Cc1oc2c(c1C(=O)N1CCCC1)C(=O)c1ccccc1C2=O : Activity at minimum 200%?
True

Activity >= 200% for COc1ccc(NC2=C(N3CCCCC3)C(=O)c3ccccc3C2=O)cc1 ?
True

# bool: Activity of O=C1C(O)=C(Cl)C(=O)c2ccccc21 >= 200%
False

----------
For each entry below, report its Activity value.
Biological target: Heme oxygenase 1 (Rattus norvegicus) (UniProt P06762)
Assay: Activation of rat spleen microsome HO-1 preincubated for 10 mins followed by NADPH addition and measured after 15 mins by gas chromatography relative to control
Assay type: microsomes
Design: concentration or dose not given beside the values

Please indicate Activity recorded for COc1ccc(NC2=C(N3CCCCC3)C(=O)c3ccccc3C2=O)cc1
82%

Return reported Activity. Input compound: O=C1CCCc2ccccc21
98%

Item Cc1oc2c(c1C(=O)N1CCCC1)C(=O)c1ccccc1C2=O : provide Activity
91%

Let me know recorded Activity for CC(C)(C)N1COc2ccc3c4c(oc3c2C1)C(=O)c1ccccc1C4=O , thanks.
85%

Provide one value: measured Activity of O=C1C=CC(=O)c2ccccc21
71%

Please report Activity for the following compound: O=C1C(O)=C(Cl)C(=O)c2ccccc21
106%

----------
Target: UniProtKB P06762
Assay: Inhibition of rat spleen microsome HO-1 preincubated for 10 mins followed by beta-NADPH addition and measured after 15 mins by gas chromatography
Format: microsomes
EXPERIMENTAL READOUT: IC50 (nM)
Express your answer in nM, writing the number without its unit.

Look up and state reported IC50 for CC(C)N1CCN(c2ccc(OCC3COC(Cn4cncn4)(c4ccc(Cl)cc4Cl)O3)cc2)CC1 (stereo unspecified)
410

----------
Target: Heme oxygenase 2 (Rattus norvegicus, UniProt P23711)
Sequence (P23711 whole entry): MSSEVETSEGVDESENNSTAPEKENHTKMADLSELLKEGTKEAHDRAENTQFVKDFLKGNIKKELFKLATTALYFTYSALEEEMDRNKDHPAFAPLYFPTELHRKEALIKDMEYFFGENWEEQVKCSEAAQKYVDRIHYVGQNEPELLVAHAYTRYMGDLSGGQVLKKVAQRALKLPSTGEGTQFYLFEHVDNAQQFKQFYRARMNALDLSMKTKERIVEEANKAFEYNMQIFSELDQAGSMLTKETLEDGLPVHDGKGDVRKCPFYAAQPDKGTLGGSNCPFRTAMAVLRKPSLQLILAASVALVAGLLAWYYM
Assay: Inhibition of Sprague-Dawley rat brain microsome HO-2 preincubated for 10 mins followed by beta-NADPH addition and measured after 15 mins by gas chromatography
Assay type: microsomes
Doc: threshold 8 µM (exclusive). Items with IC50 beneath it return Y; others return N.

Strictly below 8 µM in IC50? O=C(Cn1ccnc1)c1cccc2ccccc12
N

IC50 strictly < 8 µM for this compound? O=C(Cn1ccnc1)c1ccc(Cl)c(Cl)c1Cl
Y

Quick check: IC50 of c1ccc(CSCCn2ccnc2)cc1 under 8 µM?
N

Field: below-cutoff. Rule: recorded IC50 strictly less than 8 µM. Subject: O=C(Cc1ccc(Br)cc1)Cn1ccnn1
Y

Decide: IC50 of c1ccc(Cn2c(CC3CC4CCC3C4)nc3ccccc32)cc1 (configuration not stated) strictly below 8 µM?
Y

Please indicate whether the reported IC50 of c1ccc(CCCCn2ccnc2)cc1 is strictly below 8 µM.
Y
